Test system: SK-MEL-28
ASSAY SUMMARY: NCI tumour cell line growth inhibition, 48 h
Active and inactive are the calls of the source. No stated cut-off is given here; in the data, active = GI50 up to about 1.1 µM and inactive = higher.
Recorded GI50, one value per entry.
EXPERIMENTAL ENDPOINT: GI50

CC(C(=O)N1c2ccccc2Sc2ccccc21)N1c2ccccc2Sc2ccccc21 (centres undefined) : > 100 µM (inactive)
COc1ccc2c(c1)-c1nc(=O)n(CCCN(C)C)c3ccc([N+](=O)[O-])c(c13)N2 : 1.19 µM (inactive)
COc1cc(/C=C2\N=C(c3ccccc3)N(c3ccc(C(=O)c4ccccc4)cc3N3C(=O)/C(=C/c4ccc(O)c(OC)c4)N=C3c3ccccc3)C2=O)ccc1O : 21.2 µM (inactive)
O=C1c2ccccc2C(=O)N1n1c(Cc2ccc([N+](=O)[O-])cc2)n[nH]c1=O : > 100 µM (inactive)

----------
Recorded GI50, one value per entry.
Tested on: UACC-62
ASSAY SUMMARY: NCI tumour cell line growth inhibition, 48 h
Calls of active or inactive are those of the source. Rule as the data show it: active = GI50 up to about 1.1 µM and inactive = higher.
EXPERIMENTAL ENDPOINT: GI50

COC(=O)C1CC/C(=N/c2ccc(C)cc2C)N1 (stereo not given) : > 100 µM (inactive)
Cc1ccc(S(=O)(=O)N/N=C2/CCC(C(C)(C)C)CC2Br)cc1 (stereo not given) : > 10 µM (inactive)
Cc1ccc2nc(-c3ccc(N4C(=O)C(Cl)C4c4ccc(Cl)cc4)cc3)sc2c1 (stereo not given) : 15.3 µM (inactive)
N=C(N)Nc1ccc(-c2ccc(NC(=N)N)cc2)cc1 : 40.1 µM (inactive)
CCCCCC1=CC(=O)C1(Cl)Cl : 10.9 µM (inactive)
CCOC(=N)CC(=O)Nc1ccccc1CC : > 100 µM (inactive)
CN(Cc1cnc2nc(N)nc(N)c2n1)c1ccc(C(=O)N[C@@H](CCC(=O)O)C(=O)O)cc1 [METHOTREXATE] : 0.0286 µM (active)
Cc1cc(NCc2ccccc2)c2ccccc2[n+]1CCCCCCCCCC[n+]1c(C)cc(NCc2ccccc2)c2ccccc21.[O-][Cl+3]([O-])([O-])[O-].[O-][Cl+3]([O-])([O-])[O-] : 0.31 µM (active)
COC(=O)c1c(-c2cc(OC)c(OC)c(OC)c2)oc2ccccc2c1=O : 68.4 µM (inactive)
COc1ccc(/C=C2\CCc3ccccc3C2=O)cc1OC : 16 µM (inactive)
CN1C(c2ccccc2)CC(O)CC1c1ccccc1 (stereo not given) : > 100 µM (inactive)
C/C(=N\Nc1nc2ccccc2n1C)c1ccc2ccccc2n1 : 2.32 µM (inactive)
Cc1cc(=O)oc2cc(OCCCOc3ccc4c(C)cc(=O)oc4c3)ccc12 : > 100 µM (inactive)
CC(=O)Oc1ccc(/C=C/C(=O)OCCOC(=O)/C=C/c2ccc(OC(C)=O)c(OC(C)=O)c2)cc1OC(C)=O : 5 µM (inactive)
COc1cc(NS(C)(=O)=O)ccc1Nc1c2ccccc2nc2ccccc12 : 0.285 µM (active)
O=P(CCOc1ccccc1OCCP(=O)(c1ccccc1)c1ccc2c(c1)OCCOCCOCCOCCO2)(c1ccccc1)c1ccc2c(c1)OCCOCCOCCOCCO2 (stereo not given) : > 100 µM (inactive)
CSCCC(N)P(C)(=O)O (stereo not given) : > 100 µM (inactive)
O=c1[nH]c2c(Nc3c4ccccc4nc4ccccc34)c([N+](=O)[O-])c(Nc3c4ccccc4nc4ccccc34)c([N+](=O)[O-])c2[nH]1 : 1.39 µM (inactive)
N#Cc1c(N)oc(-c2ccc([N+](=O)[O-])cc2)c1C#N : 39.5 µM (inactive)
O=C1C2ON3c4ccccc4C(=O)C3(c3ccccc3)C2C(=O)N1c1ccccc1 (stereo not given) : > 100 µM (inactive)
Brc1ccc2c3c1[C@H]1O[C@H]1c1cccc(c1-3)[C@@H]1O[C@H]21 : 16.8 µM (inactive)
CC1CC(C)C(C(O)CC2CC(=O)N(c3ccccc3)C(=O)C2)C(O)C1 (stereo not given) : > 100 µM (inactive)
Nc1ccc2nc(-c3cccc(Cl)c3)cc(O)c2c1 : 3.14 µM (inactive)
CC(=O)n1c2ccc(Br)cc2c2nc3ccccc3nc21 : > 100 µM (inactive)
CCOC(=O)Cc1nc2ccccc2s1 : 17.9 µM (inactive)
COC(=O)c1cc(OC)c(OC)c(OC)c1-c1cc2c(cc1C=O)OCO2 : > 10 µM (inactive)
COC(=O)c1c(O)ccc2c1c1c(n2Cc2ccccc2)C(=O)c2ccccc2C1 : 36.9 µM (inactive)
C=C(C)C(=O)O[C@H]1C[C@@]23O[C@@H]2CCC(=C[C@H]2OC(=O)C(=C)[C@H]12)COC3O (stereo not given in full) : 54.1 µM (inactive)
C=C1CC(OC)(C(O)C(=O)N[C@H]2OCO[C@H]3C2O[C@H](C[C@@H](COC)OC)C(C)(C)C3OC)O[C@H](C)[C@@H]1C (stereo not given in full) : < 0.00482 µM (active)
CC1C2C=CC1C(c1c3ccc(=O)c(O)c-3oc3c(O)c(O)ccc13)C2C(=O)O (stereo not given) : > 100 µM (inactive)
CC(c1ccc2c(c1)CCC1C2CC2OC23CC=CC(=O)[C@]13C)C1C[C@]2(C)O[C@]2(C)[C@H](O)O1 (stereo not given in full) : 91.2 µM (inactive)
CC(=O)O[C@H]1CCC2[C@@H]3CCC4NC(=O)C(C#N)C[C@]4(C)C3CC[C@@]21C (stereo not given in full) : > 10 µM (inactive)
Cc1ccc(NC(=O)/C(=N/NC(=O)C[N+](C)(C)C)c2nc3ccccc3nc2O)cc1 : > 100 µM (inactive)
N#Cc1c(N)nc2c(c1-c1ccc(Br)cc1)CSc1ccccc1-2 : 21.4 µM (inactive)
Cc1nc2c(=O)n(C)c(=O)n(C)c2o1 : > 100 µM (inactive)
COC(=O)C1(Cc2cccc(Cl)c2)CCCCCCN1C(=O)c1ccccc1 (stereo not given) : 11.1 µM (inactive)
Cc1cc(SCC(=O)c2ccc(Br)cc2)cc(C)[o+]1 : 31.4 µM (inactive)
O=C1c2ccccc2C(=O)N1n1c(Cc2ccc([N+](=O)[O-])cc2)n[nH]c1=O : 36.3 µM (inactive)
Cc1ccccc1NC(=O)C(=O)CC(=O)c1sc(Nc2ccccc2[N+](=O)[O-])nc1C : 18.2 µM (inactive)
CCOC(=O)c1cc2c([N+](=O)[O-])c(NC(C)=O)ccc2s1 : 66.7 µM (inactive)

Origin of values: ChEMBL document CHEMBL1201862
